# assay-summary: qHTS assay to identify small molecule antagonists of the estrogen related receptor (ERR) signaling pathway from Tox21 library - cell viability counter screen (AID 1224834); further: nearly all actives have a fitted effect of over 30% in size
# test-settings: ERR reporter cells viability, CellTiter-Fluor, 17.5 h; series mostly up to 92.4 µM
Records with an inconclusive call do not appear. The source made the active and inactive calls. The call rests on the fitted dose curve; in most records, active means well fitted cell-killing curve with a large enough effect in the repeat runs; inconclusive means weak or mixed curves; inactive means flat fitted curve, though single readings scatter.
Allowed answers: YES (active), NO (inactive)

Worked set:
CCCCCCCCCCCC[N+](C)(C)C    YES
CC(=O)Nc1ccc(C(=O)CCl)cc1    NO
COc1ccc(COC(C)=O)cc1    NO
Cc1cccc([N+](=O)[O-])c1C(=O)O    NO
CC(=O)CC(C)=O    NO
CC(=O)O[C@]1(C(C)=O)CC[C@H]2[C@@H]3C[C@H](C)C4=CC(=O)CC[C@]4(C)[C@H]3CC[C@@]21C    YES

Entry "O=S(=O)(O)c1ccc2nc(-c3ccccc3)[nH]c2c1" : call = ?
NO

Which outcome was assigned to C#CC(C)(CC)OC(=O)c1ccccc1C(=O)O (stereo not drawn) in this test?
NO

Kindly provide the recorded test outcome for the following compound: "CCOc1ccccc1C(N)=O"
NO

Name the outcome recorded for OCCOCCN1CCN(C(c2ccccc2)c2ccc(Cl)cc2)CC1 (stereo not drawn) in the assay.
YES

Dear all, I need the recorded test outcome for "N[C@@H]1CONC1=O" , thank you.
NO

Give the logged outcome of this assay for the following compound: CC1COc2c(N3CCN(C)CC3)c(F)cc3c(=O)c(C(=O)O)cn1c23 (stereo not drawn)
NO

Tell me the assay call for "O=C(Oc1ccccc1)c1ccccc1O" please.
NO

###

# assay-summary: qHTS RealTime-Glo MT Cell Viability Assay in HepG2 cells - 24 hour (AID 1224867); further: nearly all actives have a fitted effect of over 50% in size
# test-settings: RealTime-Glo luminescence; series mostly up to 76.8 µM
Inconclusive results are not listed. Active and inactive are the calls of the source. Calls follow the shape of the dose curve; as a rule, active = well fitted cell-killing curve with a large enough effect in the repeat runs; inconclusive = weak or mixed curves; inactive = flat fitted curve, though single readings scatter.
Entry note: the call must match one of active, inactive

Here's what some known entries look like.
CC(C(O)c1ccc(O)cc1)N1CCC(Cc2ccccc2)CC1 (stereo unspecified)    inactive
COC(=O)c1cccc(C(=O)OC)c1    inactive
Cc1occc(=O)c1OC(=O)C(C)C    inactive
c1ccc2c(c1)CCCC2C1=NCCN1 (stereo unspecified)    inactive
NC12CC3CC(CC(C3)C1)C2    inactive

How was "O=C(O)CP(=O)(O)O" classified in this test?
inactive

What outcome does the record of this test show for "COC(=O)/C=C/c1ccccc1" ?
inactive

Which outcome was entered for the molecule "O=C1CC2(CCCC2)CC(=O)N1CCCCN1CCN(c2ncccn2)CC1" in this test?
inactive

Please state the recorded outcome for this molecule: CCC(C)(Oc1ccc(C2(c3ccc(OC(C)(CC)C(=O)O)cc3)CCCCC2)cc1)C(=O)O (stereo unspecified)
inactive

Recorded test outcome, item "CC(C)C(=O)c1c(C(C)C)nn2ccccc12"
inactive

###

# assay-summary: qHTS assay to identify small molecule antagonists of the retinoid acid receptor (RAR) signaling pathway - cell viability counter screen (AID 1159551); further: nearly all actives have a fitted effect of over 35% in size
# test-settings: C3RL4 cells viability, ATP luminescence (CellTiter-Glo), 6 h; series mostly up to 92.4 µM
Inconclusive results are not listed. The source made the active and inactive calls. Calls come from the whole dose curve; as a rule, active = well fitted cell-killing curve with a large enough effect in the repeat runs; inconclusive = weak or mixed curves, or effect the other way; inactive = flat fitted curve, though single readings scatter.
Please state which outcome applies, choosing from yes (1) = active, no (0) = inactive

The examples below pair each entry with its known result.
CC(C)CCCCCCc1ccc(O)cc1    yes (1)
CCCCOCCOC(=O)c1ccccc1C(=O)OCCOCCCC    no (0)

In this assay, the call recorded for "Nc1cc(S(=O)(=O)O)cc2cc(S(=O)(=O)O)cc(O)c12" was what?
no (0)

Answer briefly: the call reported for "CC[C@@H](N)CO" in this assay.
no (0)

Which outcome was assigned to "NC(N)=Nc1nc(CSCC/C(N)=N/S(N)(=O)=O)cs1" in this test?
no (0)

Given "NC(=Nc1ccccc1)Nc1ccccc1" , state the outcome it received in this test.
no (0)

Identify the outcome logged in this assay for the molecule shown: "CCN(CC)CCOc1ccc(/C(=C(\Cl)c2ccccc2)c2ccccc2)cc1"
yes (1)

I would be grateful if you could indicate the recorded call for CCC(=O)/C=C/C1C(C)=CCCC1(C)C (configuration not stated) .
no (0)

// return assay outcome for "C=CS(=O)(=O)O"
no (0)

Could you please tell me the result logged for "CC(=O)Nc1ccc(C(=O)CCl)cc1" in this assay?
no (0)

Given "O=C(Nc1ccccc1SSc1ccccc1NC(=O)c1ccccc1)c1ccccc1" , state the outcome it received in this test.
no (0)

Given "CC(=O)OCC1=C(C(=O)O)N2C(=O)[C@@H](NC(=O)Cc3cccs3)[C@H]2SC1" , state the outcome it received in this test.
no (0)
